# Lookup of reported GLP1 secretion stimulation keyed by entry
Experiment: glucagon-like peptide 1 release enhancers, primary assay, NCI-H716 cell line, NPC library (AID 1117341)
Settings: NCI-H716 cells, at 10 µM, stronger effect = higher value
Give the value, in units of %, as a plain number.

The following molecules have reported results that may help.
Nc1cc(C(Cl)=C(Cl)Cl)c(S(N)(=O)=O)cc1S(N)(=O)=O; 12.7
O=C(CCCN1CCC(O)(c2ccc(Br)cc2)CC1)c1ccc(F)cc1; 2.1
NC1=NCC2c3ccccc3Cc3ccccc3N12 (stereo unspecified); 4.4
CN(C)[C@@H](CCOc1cccc2ccccc12)c1ccccc1; 6
NC(=O)C1(N2CCCCC2)CCN(CCCC(=O)c2ccc(F)cc2)CC1; 2.8

Now look at this entry.
Look up GLP1 secretion stimulation for this molecule: c1cnc2cc3c(cc2n1)C1CNCC3C1
-4

====

Test: stimulators of nuclear beta-catenin in C2C12, primary screen, imaging, WNT3A-conditioned medium, mouse C2C12, NPC library (AID 1117326)
Conditions: at 10 µM, stronger effect = higher value
MEASUREMENT NAME: nuclear beta-catenin stimulation (%)
Give the value, in units of %, as a plain number.

Look up nuclear beta-catenin stimulation for this compound: CC(=O)[C@H]1CC[C@H]2[C@@H]3CC=C4C[C@@H](O)CC[C@]4(C)[C@H]3CC[C@]12C
3

====

Experiment: inhibition of endothelial tube formation, primary screen, imaging, VEGF stimulated, CD31 staining, tube area, NPC library (AID 1117340)
Details: VEGF-stimulated ADSC/ECFC co-culture, at 10 µM, stronger effect = higher value
# Lookup of reported tube area decrease keyed by entry
Give the value, in units of %, as a plain number.

The following compounds have reported results that may help.
COC(=O)[C@@H](N)Cc1ccc(O)c(O)c1; 1.4
O=C(O)c1ccc(-n2nc(-c3ccccc3O)nc2-c2ccccc2O)cc1; 102
OC1(c2ccc(Cl)c(C(F)(F)F)c2)CCN(CCCC(c2ccc(F)cc2)c2ccc(F)cc2)CC1; 112
CS(=O)(=O)c1ccc([C@@H](O)[C@@H](CF)NC(=O)C(Cl)Cl)cc1; 10.2
CN(C(=O)CN(CCO)CC(=O)N(C)C(C)(C)Cc1ccccc1)C(C)(C)Cc1ccccc1; 2.2

Look up tube area decrease for this compound: O=P(O)(O)C(O)(Cn1ccnc1)P(=O)(O)O
8.6

Look up tube area decrease for this compound: COc1ccc2c(c1OC)C(=O)O[C@@H]2[C@H]1c2c(cc3c(c2OC)OCO3)CCN1C
4.1

====

Test: modulation of C. elegans fzo-1 (AID 1259413);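 also: fzo-1 mutant C. elegans worms in liquid wells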
Settings: C. elegans fzo-1 modulator screen, mean read-out; stronger effect = higher value
MEASUREMENT NAME: mean signal
Keep the answer to the number alone.

The following molecules have reported results that may help.
CCCC(=O)Nc1ccc(OCC(O)CNC(C)C)c(C(C)=O)c1 (stereo unspecified); 238
CC(C)[N+]1(C)C2CCC1CC(OC(=O)C(CO)c1ccccc1)C2 (stereo unspecified); 254
C=CC1=C(C(=O)O)N2C(=O)[C@@H](NC(=O)/C(=N\O)c3csc(N)n3)[C@H]2SC1 (stereo in doubt); 293
CC[C@H](C)C(=O)O[C@H]1CCC=C2C=C[C@H](C)[C@H](CC[C@@H]3C[C@@H](O)CC(=O)O3)[C@H]21; 242
CN(C)CCC(c1ccc(Cl)cc1)c1ccccn1 (stereo unspecified); 225
O=[N+]([O-])c1cccc2cn[nH]c12; 242
CN1CCN(C2=Nc3cc(Cl)ccc3Nc3ccccc32)CC1; 262
CC(=O)OCC(=O)[C@@]1(O)CC[C@H]2[C@@H]3C[C@H](C)C4=CC(=O)C=C[C@]4(C)[C@H]3[C@@H](O)C[C@@]21C; 251
CN1[C@@H]2CC(OC(=O)[C@H](CO)c3ccccc3)C[C@H]1[C@@H]1O[C@@H]12 (stereo partly specified); 252
CC1(C)SC2C(NC(=O)COc3ccccc3)C(=O)N2C1C(=O)O (stereo unspecified); 260

Now look at this entry.
Look up mean signal for this molecule: COCCCOc1ccnc(CS(=O)c2nc3ccccc3[nH]2)c1C (stereo unspecified)
232

====

# Lookup of reported normalised cell number keyed by entry
Assay: differential killing of epithelial or mesenchymal cells, primary screen, imaging, PC-3E GFP, TEM4-18 mCherry, co-culture (AID 1345086);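 also: cells exposed to compound for 72 h before imaging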
Conditions: imaging cell counts, measured here: epithelial PC-3E GFP cell survival, at 1 µM
Keep the answer to the number alone.

The following molecules have reported results that may help.
O=C(O)COCCN1CCN(C(c2ccccc2)c2ccc(Cl)cc2)CC1 (stereo not drawn); 1.06
NCCCCC(=O)O; 1.1
COc1c(-c2coc3cc4c(cc3c2=O)CC(OC(C)=O)C(C)(C)O4)ccc2c1C=CC(C)(C)O2 (stereo not drawn); 1.02

Look up normalised cell number for this molecule: CN(N=O)C(=O)N[C@@H]1[C@@H](O)[C@H](O)[C@@H](CO)O[C@@H]1O
0.95

Look up normalised cell number for this molecule: Cc1cc(=O)oc2cc(O)ccc12
1.05

Look up normalised cell number for this molecule: NCCCCN
0.98

Look up normalised cell number for this molecule: C1CNCCN1
0.8

Look up normalised cell number for this molecule: Cn1cc[nH]c1=S
1.12

Look up normalised cell number for this molecule: Cc1cc(OC(=O)c2c(C)cc(O)cc2O)cc(O)c1C(=O)O
1.06

Look up normalised cell number for this molecule: CCCCC(CC)COC(=O)CC(C(=O)OCC(CC)CCCC)S(=O)(=O)O (stereo not drawn)
0.99

Look up normalised cell number for this molecule: COc1ccc(-c2coc3cc(O)ccc3c2=O)c(O)c1O
0.83

Look up normalised cell number for this molecule: COc1cc(O)c(C(C)=O)c(OC)c1
1.02

Look up normalised cell number for this molecule: NCCc1ccn[nH]1
1.25

====

Assay: ovarian cancer cell viability with rucaparib, profiling panel, oncology-focused library, rucaparib conditional (AID 1508598)
Settings: patient-derived ovarian cancer cells, CellTiter-Glo viability, 144 h; at 0.00488 µM; OCI-C5x cells; without rucaparib
Active and inactive are the calls of the source.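 How the source made its calls: active means normalized viability below 100% at a tested concentration; inactive means the rest.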
Choose one outcome from this list and give only that: active, inactive

CCc1ccc(CCOc2ccc(CC3SC(=O)NC3=O)cc2)nc1 (stereo not given); inactive
O=C(CCCCCCC(=O)Nc1ccccc1)NO; inactive
CN(N=O)C(=O)N[C@@H]1[C@@H](O)[C@H](O)[C@@H](CO)O[C@@H]1O; inactive

Could you now consider this next compound?
Field: outcome | Entry: Cc1ccc(Nc2nccc(N(C)c3ccc4c(C)n(C)nc4c3)n2)cc1S(N)(=O)=O
active

====

Test system: Aerobactin synthetase IucA (Klebsiella pneumoniae)
Assay: IucA aerobactin synthetase inhibitors, biochemical, Tocris library, absorbance (AID 1345561);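 also: 100% = enzyme without compound and 0% = no enzyme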
Details: purified IucA enzyme assay, absorbance (OD) read-out; stronger effect = lower value; concentration not given here
MEASUREMENT NAME: remaining activity (%)
Give the value, in units of %, as a plain number.

The following compounds have reported results that may help.
CCn1ccnc1CC1COc2ccccc2O1 (stereo unspecified); 82.4
COCC(=O)O[C@]1(CCN(C)CCCc2nc3ccccc3[nH]2)CCc2cc(F)ccc2[C@@H]1C(C)C; 86.1
OC(CN1CCC(Cc2ccc(F)cc2)CC1)c1ccc(Cl)cc1 (stereo unspecified); 78.5

Look up remaining activity for this compound: CN1[C@@H]2CC(OC(=O)[C@H](CO)c3ccccc3)C[C@H]1[C@@H]1O[C@@H]12 (stereo partly specified)
104

Look up remaining activity for this compound: FC(F)(F)c1ccccc1-n1ccnc1
102

Look up remaining activity for this compound: C[N+](C)(C)CC[N+]1(C)Cc2c(Cl)c(Cl)c(Cl)c(Cl)c2C1
115

Look up remaining activity for this compound: CC(C)OC(=O)c1cc2c(OCC(O)CNC(C)(C)C)cccc2[nH]1 (stereo unspecified)
116

Look up remaining activity for this compound: CC#C[C@]1(O)CC[C@H]2[C@@H]3CCC4=CC(=O)CCC4=C3[C@@H](c3ccc(N(C)C)cc3)C[C@@]21C
115

Look up remaining activity for this compound: O=C(O)C1=CCNCC1
102

Look up remaining activity for this compound: COc1ccc2c3c1O[C@H]1C[C@@H](O)C=C[C@@]31CCN(C)C2
110

Look up remaining activity for this compound: COc1ccc(CCN(C)CCCN2CCc3cc(OC)c(OC)cc3CC2=O)cc1OC
98.9

====

Assay: UWB1.289 ovarian carcinoma cell growth inhibition, synergistic combos for chromothripsis tumors, BGB or cisplatin combos (AID 1671456);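 also: cells exposed to compound for four days; 0% = vehicle DMSO and 100% = killing by high DMSO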
Details: UWB1.289 ovarian carcinoma cells, measured here: inhibition with cisplatin combination, at 0.05 µM, stronger effect = higher value
# Lookup of reported inhibition keyed by entry
Give the value, in units of %, as a plain number.

Look up inhibition for this compound: CNC1CCCN(c2c(F)cc3c(=O)c(C(=O)O)cn(C4CC4)c3c2OC)C1 (stereo not drawn)
0.742
